B1: library; a variant is named by its letters at N, in order (parent)
chain: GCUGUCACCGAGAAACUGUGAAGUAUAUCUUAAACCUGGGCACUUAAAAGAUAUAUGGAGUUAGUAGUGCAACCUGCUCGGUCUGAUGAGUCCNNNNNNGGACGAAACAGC

- Variants of: B1
- assay-text: FACS-Seq fitted mean relative fluorescence mCherry/BFP without ligand (log10 relative fluorescence); HEK293T; ligand: cyclic di-GMP (c-di-GMP-II aptamer); higher = higher reporter protein expression
- condition-info: ligand present: no
Rule: FACS-Seq fitted mean (log10) under -0.4 gives 0, otherwise 1.

record-sequence	answer-label
GCUGUCACCGAGAAACUGUGAAGUAUAUCUUAAACCUGGGCACUUAAAAGAUAUAUGGAGUUAGUAGUGCAACCUGCUCGGUCUGAUGAGUCCUCAAAAGGACGAAACAGC [UCAAAA]	1

Let us examine a further case.
Is reported FACS-Seq fitted mean (log10) greater than or equal to -0.4 here: GCUGUCACCGAGAAACUGUGAAGUAUAUCUUAAACCUGGGCACUUAAAAGAUAUAUGGAGUUAGUAGUGCAACCUGCUCGGUCUGAUGAGUCCUGAUACGGACGAAACAGC [UGAUAC]
1
